tested-target: OsSMF1 (Oryza sativa, UniProt Q6ZLB0 1-436)
Sequence: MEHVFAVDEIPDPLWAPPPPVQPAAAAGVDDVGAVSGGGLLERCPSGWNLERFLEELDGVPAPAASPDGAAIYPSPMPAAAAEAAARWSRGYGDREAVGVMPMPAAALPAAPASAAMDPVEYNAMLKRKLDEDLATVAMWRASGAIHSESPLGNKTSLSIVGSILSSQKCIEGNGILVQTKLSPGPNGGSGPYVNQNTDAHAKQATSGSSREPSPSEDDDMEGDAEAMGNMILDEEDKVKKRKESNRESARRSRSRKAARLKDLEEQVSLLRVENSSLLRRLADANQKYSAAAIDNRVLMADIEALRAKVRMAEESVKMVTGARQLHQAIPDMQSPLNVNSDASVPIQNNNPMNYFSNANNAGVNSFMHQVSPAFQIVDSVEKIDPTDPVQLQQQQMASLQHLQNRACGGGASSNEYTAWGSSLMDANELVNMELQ
method-description: protein-binding microarray (RPBM); PBS, 2% BSA, 51.3 ng/ul salmon testes DNA, 50 uM zinc acetate, 200 nM TF, 25 C, 1 h; high values mean tight binding
test-settings: protein: recombinant; tags: N-terminal polyhistidine and DsRed monomer fusion (pET32a); chain copies: 2; label: CyDye5-dUTP incorporated in the synthesized complementary strand; 3' TTTTT single-stranded linker to array surface; dsDNA, one strand shown
In all, about 39,000 sequences were measured (“fluorescence intensity (a.u.)”: median about 4,300, highest 2% from about 39,000 on). The sample holds the highest values, similar sequences and a random draw of the others, so the mix is not that of the screen.
property-label: binding signal

Known binding signal results, listed for orientation:
AATGTGACCACGTCATCCCCTTCTTTCCCTTTCCCCTCTTCGGAGTCACCTAGTGCAG: 33300 fluorescence intensity (a.u.)
GAGCAGAAAGACGCGGCTTCTCGAGAGTTCCAAGTTCCAACGGAGTCACCTAGTGCAG: 45200 fluorescence intensity (a.u.)
TCCTCCCACGCTTCTTCTTCTTCTTCTTCTTCCCTTTCCCCGGAGTCACCTAGTGCAG: 9800 fluorescence intensity (a.u.)
GGCCATGTTGAATGACGCGTTGCTCTCCCTACTCTACGGACGGAGTCACCTAGTGCAG: 49100 fluorescence intensity (a.u.)

Lab note: next sequence to report on.
QUERY: Retrieve binding signal on OsSMF1 (Oryza sativa, UniProt Q6ZLB0 1-436); query CGTCTCGCCGGAGCGTTGACGAGGACCTCTCTACTCTTCACGGAGTCACCTAGTGCAG
RESULT: 3680 fluorescence intensity (a.u.)
